# Protocol text: RPL19A-GFP modulators, yeast TOR pathway, confirmation, cell-based, S. cerevisiae, flow cytometry, cherry picks, mother/daughter gates (AID 2270)
# Conditions: S. cerevisiae RPL19A-GFP strain, 3 h, measured here: daughter cell gate, at 10 µM, stronger effect = lower value, 100 = same GFP as DMSO wells
Each entry below carries its recorded GFP response vs DMSO.
// return numeric value only (unit: %, not printed)

Molecule: Cc1cc(NCCCN2CCOCC2)n2nc(C)c(-c3ccccc3)c2n1
Reading: 94.7

Task item: Item CCCc1nnc(NC(=O)c2nc(S(=O)(=O)Cc3cccc(C)c3)ncc2Cl)s1 has what recorded GFP response vs DMSO?
Reply: 96.4

Task item: How about O=C(Nc1ccccc1)c1nnsc1S(=O)(=O)c1ccc(Cl)cc1 ?
Reply: 87.8

Task item: How about Oc1cccc(/C=N/c2c(-c3ccco3)nc3ccccn23)c1 ?
Reply: 96.2

Task item: How about O=C1C(=O)c2ccc(-c3ccccc3)cc2-c2ccccc21 ?
Reply: 104

Task item: How about O=C(N/N=C/c1ccc(OCCCF)cc1)c1cc(OCC(F)(F)F)ccc1OCC(F)(F)F ?
Reply: 100

Task item: How about CC1=NOC(=O)/C1=C\c1ccc(-c2cc(Cl)ccc2Cl)o1 ?
Reply: 93.9
